Quick reference: pest or weed control at 2 ppm of the listed items.
Tested on: Phytophthora infestans
Test: whole plant or invertebrate
Type: in vivo
Details: Phytophthora infestans, in Solanum lycopersicum, read-out: TLB control value (C.V.)
Give just the number in %; leave the unit off.

[
  {
    "compound": "CNC(=O)/C(=N/OC)c1ccccc1COc1ccc(F)cc1C=C(Cl)Cl [Example 56]",
    "measure": "pest or weed control at 2 ppm",
    "reportedValue": 95
  }
]

Q. Consider the compound shown here: CO/N=C(/C(=O)OC)c1ccccc1COc1cccc(C=C(Cl)Cl)c1 [Example 1] What is its recorded pest or weed control at 2 ppm?
A. 80

Q. Another compound: CNC(=O)/C(=N/OC)c1ccccc1COc1cc(Br)ccc1C=C(Br)Br [Example 86]
A. 70

Q. Would you mind doing CO/N=C(/C(=O)OC)c1ccccc1COc1ccc(C=C(Cl)Cl)cc1Br [Example 53] as well?
A. 90

----------
Test system: Phytophthora infestans
Assay: whole plant or invertebrate
Type: in vivo
Settings: Phytophthora infestans, in Solanum lycopersicum, read-out: TLB control value (C.V.)
measure: pest or weed control at 50 ppm (%)
Give the value, in units of %, as a plain number.

Please review the following examples before continuing.
[
  {
    "molecule": "CNC(=O)/C(=N/OC)c1ccccc1COc1cccc(C=C(Cl)Cl)c1Cl [Example 44]",
    "measure": "pest or weed control at 50 ppm",
    "unitOfMeasurement": "%",
    "reportedValue": 100
  },
  {
    "molecule": "CO/N=C(/C(=O)OC)c1ccccc1COc1cccc(C=C(Br)Br)c1Cl [Example 67]",
    "measure": "pest or weed control at 50 ppm",
    "unitOfMeasurement": "%",
    "reportedValue": 100
  },
  {
    "molecule": "CCOc1cc(C=C(Cl)Cl)ccc1OCc1ccccc1/C(=N\\OC)C(=O)OC [Example 59]",
    "measure": "pest or weed control at 50 ppm",
    "unitOfMeasurement": "%",
    "reportedValue": 100
  },
  {
    "molecule": "CO/N=C(/C(=O)OC)c1ccccc1COc1cc(Br)ccc1C=C(Br)Br [Example 85]",
    "measure": "pest or weed control at 50 ppm",
    "unitOfMeasurement": "%",
    "reportedValue": 100
  },
  {
    "molecule": "CO/N=C(/C(=O)OC)c1ccccc1COc1ccc(C=C(Cl)Cl)cc1Cl [Example 39]",
    "measure": "pest or weed control at 50 ppm",
    "unitOfMeasurement": "%",
    "reportedValue": 100
  }
]

Switching to the query record.
Q. Please look up its pest or weed control at 50 ppm: CO/N=C(/C(=O)OC)c1ccccc1COc1ccc(C)cc1C=C(Br)Br [Example 69]
A. 100

----------
Test system: Puccinia recondita
Assay: Fungicidal activity against wheat leaf rust (WLR) disease, control value
Type: in vivo
Conditions: 50 ppm, wheat leaf rust
Recorded WLR control value (C.V.), one value per entry.
The figure you give is taken to be in %; do not add the unit.

[
  {
    "smilesStr": "CNC(=O)/C(=N/OC)c1ccccc1CON=C(C)c1ccc(C=C(Br)Br)cc1",
    "testedSystem": "Puccinia recondita",
    "measure": "WLR control value (C.V.)",
    "reportedValue": 98
  },
  {
    "smilesStr": "CNC(=O)/C(=N/OC)c1ccccc1CON=C(C)c1cccc(C=C(Cl)Br)c1",
    "testedSystem": "Puccinia recondita",
    "measure": "WLR control value (C.V.)",
    "reportedValue": 100
  },
  {
    "smilesStr": "CO/N=C(/C(=O)OC)c1ccccc1CON=C(C)c1ccc(C=C(Cl)Cl)cc1",
    "testedSystem": "Puccinia recondita",
    "measure": "WLR control value (C.V.)",
    "reportedValue": 100
  },
  {
    "smilesStr": "CO/N=C(/C(=O)OC)c1ccccc1CON=C(C)c1cccc(C=C(F)Cl)c1",
    "testedSystem": "Puccinia recondita",
    "measure": "WLR control value (C.V.)",
    "reportedValue": 90
  },
  {
    "smilesStr": "CNC(=O)/C(=N/OC)c1ccccc1CON=C(C)c1cccc(C=C(Cl)Cl)c1",
    "testedSystem": "Puccinia recondita",
    "measure": "WLR control value (C.V.)",
    "reportedValue": 98
  }
]

Q. Any idea what WLR control value (C.V.) was measured for CNC(=O)/C(=N/OC)c1ccccc1CON=C(C)c1ccc(C=C(Cl)Br)cc1 ?
A. 100

Q. What about CNC(=O)/C(=N/OC)c1ccccc1CON=C(C)c1cccc(C=C(F)F)c1 ?
A. 100

Q. Continue with CO/N=C(/C(=O)OC)c1ccccc1CON=C(C)c1ccc(C=C(Br)Br)cc1
A. 100

----------
As shown below, each of these compounds has a reported pest or weed control at 10 ppm value.
System: Rhizoctonia solani AG-1
Experiment: Fungicidal activity against rice sheath blight (RSB) disease, control value
Conditions: Rhizoctonia solani, AG1, in Oryza sativa, read-out: RSB control value (C.V.)
State the value, then name its unit.

[
  {
    "compound": "CNC(=O)/C(=N/OC)c1ccccc1COc1cccc(C=C(Br)Br)c1Cl [Example 68]",
    "reportedValue": "100%"
  },
  {
    "compound": "OC(c1ccc(Cl)cc1)(c1cncnc1)c1ccccc1Cl (stereo not shown) [Fenarimol, reference compound]",
    "reportedValue": "85%"
  },
  {
    "compound": "CO/N=C(/C(=O)OC)c1ccccc1COc1c(OC)ccc(C=C(Cl)Cl)c1Br [Example 51]",
    "reportedValue": "98%"
  }
]

Now consider the entry below.
Q. Value lookup for pest or weed control at 10 ppm; key = CNC(=O)/C(=N/OC)c1ccccc1COc1c(C)cccc1C=C(Br)Br [Example 74]
A. 80%

----------
Reported BPM control value (C.V.) is given for each of the following molecules.
Tested on: Erysiphae graminis
Experiment: Fungicidal activity against barley powdery mildew (BPM) disease, control value
Format: in vivo
Details: 2 ppm, barley powdery mildew
Expressed in %, but write only the number.

Here is how some molecules turned out for BPM control value (C.V.).
[
  {
    "smilesStr": "CNC(=O)/C(=N/OC)c1ccccc1CON=C(C)c1ccc(C=C(Cl)Cl)cc1",
    "unitOfMeasurement": "%",
    "BPM control value (C.V.)": 98
  },
  {
    "smilesStr": "CNC(=O)/C(=N/OC)c1ccccc1CON=C(C)c1ccc(C=C(Cl)Br)cc1",
    "unitOfMeasurement": "%",
    "BPM control value (C.V.)": 95
  },
  {
    "smilesStr": "CNC(=O)/C(=N/OC)c1ccccc1CON=C(C)c1cccc(C=C(Cl)Br)c1",
    "unitOfMeasurement": "%",
    "BPM control value (C.V.)": 100
  }
]

Q. Which BPM control value (C.V.) value belongs to CO/N=C(/C(=O)OC)c1ccccc1CON=C(C)c1ccc(C=C(F)F)cc1 ?
A. 15

Q. Try CO/N=C(/C(=O)OC)c1ccccc1CON=C(C)c1cccc(C=C(Br)Br)c1 next.
A. 20

Q. What about this molecule? CO/N=C(/C(=O)OC)c1ccccc1CON=C(C)c1ccc(C=C(Cl)Br)cc1
A. 35

Q. Again, but for CNC(=O)/C(=N/OC)c1ccccc1CON=C(C)c1cccc(C=C(Cl)Cl)c1
A. 100

----------
System: Erysiphae graminis
Assay: Fungicidal activity against barley powdery mildew (BPM) disease, control value
Type: in vivo
Conditions: 2 ppm, barley powdery mildew
Reported BPM control value (C.V.) values for the following compounds.
Return type: number; implicit unit %.

[
  {
    "smilesStr": "CNC(=O)/C(=N/OC)c1ccccc1CON=C(C)c1cccc(C=C(Br)Br)c1",
    "unitOfMeasurement": "%",
    "BPM control value (C.V.)": 10
  },
  {
    "smilesStr": "CO/N=C(/C(=O)OC)c1ccccc1CON=C(C)c1cccc(C=C(Cl)Br)c1",
    "unitOfMeasurement": "%",
    "BPM control value (C.V.)": 15
  },
  {
    "smilesStr": "CO/N=C(/C(=O)OC)c1ccccc1CON=C(C)c1ccc(C=C(Br)Br)cc1",
    "unitOfMeasurement": "%",
    "BPM control value (C.V.)": 100
  },
  {
    "smilesStr": "CO/N=C(/C(=O)OC)c1ccccc1CON=C(C)c1cccc(C=C(Cl)Cl)c1",
    "unitOfMeasurement": "%",
    "BPM control value (C.V.)": 100
  },
  {
    "smilesStr": "CO/N=C(/C(=O)OC)c1ccccc1CON=C(C)c1ccc(C=C(Cl)Cl)cc1",
    "unitOfMeasurement": "%",
    "BPM control value (C.V.)": 20
  },
  {
    "smilesStr": "CO/N=C(/C(=O)OC)c1ccccc1CON=C(C)c1cccc(C=C(F)F)c1",
    "unitOfMeasurement": "%",
    "BPM control value (C.V.)": 98
  },
  {
    "smilesStr": "CNC(=O)/C(=N/OC)c1ccccc1CON=C(C)c1ccc(C=C(Br)Br)cc1",
    "unitOfMeasurement": "%",
    "BPM control value (C.V.)": 99
  }
]

--- query ---
Q. Requested field: BPM control value (C.V.). Item: CNC(=O)/C(=N/OC)c1ccccc1COc1c(OC)ccc(C=C(Cl)Cl)c1Br
A. 99
